Documented residual activity across a set of compounds
assayed-system: UniProtKB P23443
Sequence (P23443 whole entry, looked up): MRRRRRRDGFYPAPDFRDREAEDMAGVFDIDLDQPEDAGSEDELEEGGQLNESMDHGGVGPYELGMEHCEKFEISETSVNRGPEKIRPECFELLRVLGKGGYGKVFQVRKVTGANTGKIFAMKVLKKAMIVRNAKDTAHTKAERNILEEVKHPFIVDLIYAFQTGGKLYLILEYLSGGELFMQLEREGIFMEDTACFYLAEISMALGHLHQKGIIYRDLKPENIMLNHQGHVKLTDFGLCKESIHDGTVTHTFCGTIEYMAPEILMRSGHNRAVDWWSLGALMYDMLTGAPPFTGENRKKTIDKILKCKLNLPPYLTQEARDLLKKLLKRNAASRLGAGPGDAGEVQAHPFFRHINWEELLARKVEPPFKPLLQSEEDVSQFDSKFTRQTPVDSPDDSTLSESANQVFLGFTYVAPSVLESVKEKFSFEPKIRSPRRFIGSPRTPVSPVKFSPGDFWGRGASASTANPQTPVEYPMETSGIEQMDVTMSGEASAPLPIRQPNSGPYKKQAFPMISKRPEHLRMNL
assay-overview: radiometric filter-binding kinase assay, Kinase HotSpot
experimental-conditions: compound 0.5 µM; ATP 10 µM
property-measured: residual activity (%)

substance_smiles=O=C1Nc2cc(Br)ccc2/C1=C1/Nc2ccccc2/C1=N\O property_measured="residual activity" units_label=% measured_value=79.6
substance_smiles=O=C(Nc1ccc(Cl)cc1)c1ccccc1NCc1ccncc1 property_measured="residual activity" units_label=% measured_value=92.5
substance_smiles=CC(C)[C@H](CO)Nc1nc(Nc2cccc(Cl)c2)c2ncn(C(C)C)c2n1 property_measured="residual activity" units_label=% measured_value=90.8
substance_smiles=O=c1cc(-c2cccc3c2Sc2ccccc2S3)oc(N2CCOCC2)c1 property_measured="residual activity" units_label=% measured_value=91.5
substance_smiles=CC(C)(C)c1nc2c3ccc(F)cc3c3c(=O)[nH]ccc3c2[nH]1 property_measured="residual activity" units_label=% measured_value=74.1
substance_smiles=Cc1cc2ncc(-c3ccccc3)nc2cc1C property_measured="residual activity" units_label=% measured_value=88.2
substance_smiles=NC(=O)c1ccc(N(C(N)=O)c2c(F)cccc2F)nc1-c1ccc(F)cc1F property_measured="residual activity" units_label=% measured_value=100
substance_smiles=CCN1/C(=C/C(C)=O)Sc2ccc(OC)cc21 property_measured="residual activity" units_label=% measured_value=95
substance_smiles=CC(C)n1cnc2c(Nc3cccc(Cl)c3)nc(NCCO)nc21 property_measured="residual activity" units_label=% measured_value=93.3
substance_smiles=Oc1ccc(-c2nc(-c3ccc(F)cc3)c(-c3ccncc3)[nH]2)cc1 property_measured="residual activity" units_label=% measured_value=87.8
substance_smiles=Nc1n[nH]c2nnc(-c3c(-c4ccccc4)nn4ccccc34)cc12 property_measured="residual activity" units_label=% measured_value=97.7
substance_smiles=COc1ccc(-c2cnc3c(-c4ccsc4)cnn3c2)cc1 property_measured="residual activity" units_label=% measured_value=92.1
substance_smiles=O=C1Cc2c([nH]c3ccc([N+](=O)[O-])cc23)-c2ccccc2N1 property_measured="residual activity" units_label=% measured_value=103
substance_smiles=CCCNC(=O)Nc1ccc(Oc2ncnc3cc(OC)c(OC)cc23)cc1Cl property_measured="residual activity" units_label=% measured_value=90.6
substance_smiles=Cc1ccc(NC(=O)c2ccc(CN3CCN(C)CC3)cc2)cc1Nc1nc(-c2cccnc2)cs1 property_measured="residual activity" units_label=% measured_value=104
substance_smiles=O=c1cc(N2CCNCC2)oc2c(-c3ccccc3)cccc12 property_measured="residual activity" units_label=% measured_value=102

Just for reference, the kinase profiling compilation of Christmann-Franck et al. (2016) is where these values come from.
